This collection of values is drawn from patent US8703811B2.

- System: P. falciparum Dd2
- RUN DESCRIPTION: Inhibition of in vitro P. falciparum culture, [3H]-hypoxanthine uptake, Dd2
- Assay type: cell-based
- TEST SETTINGS: Plasmodium falciparum, DD2, Erythrocyte, read-out: Dd2 IC50
ASSAY READOUT: IC50
The reply should consist of the numeric value with the unit placed after it.

Sure, the documented IC50 for CCN(CC)CCCC(C)Nc1ccnc2cc(Cl)ccc12 (stereo not shown) [Chloroquine, reference compound] is 180 nM

----------
Consider the following compounds; for each one, report its IC50.
- TARGET UNDER TEST: pfDHODH (Plasmodium falciparum (isolate 3D7), UniProt Q08210)
- Sequence (Q08210 159-565 limits assumed): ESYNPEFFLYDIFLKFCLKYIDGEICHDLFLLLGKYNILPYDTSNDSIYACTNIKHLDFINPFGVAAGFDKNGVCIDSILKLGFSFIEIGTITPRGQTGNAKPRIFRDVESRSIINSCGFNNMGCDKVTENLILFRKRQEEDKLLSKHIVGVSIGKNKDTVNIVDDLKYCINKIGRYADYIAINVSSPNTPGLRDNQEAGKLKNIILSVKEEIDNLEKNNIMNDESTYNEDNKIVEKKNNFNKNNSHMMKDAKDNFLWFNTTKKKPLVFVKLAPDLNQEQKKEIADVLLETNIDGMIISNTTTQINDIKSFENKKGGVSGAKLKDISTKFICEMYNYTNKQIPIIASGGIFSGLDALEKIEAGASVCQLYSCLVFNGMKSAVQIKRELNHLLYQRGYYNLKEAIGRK
- RUN DESCRIPTION: DHODH chromogen reduction (DCIP) assay, pfDHODH
- Assay type: biochemical, P. falciparum
- TEST SETTINGS: Table 3; DCIP assay, 20 nM pfDHODH; read-out: pfDHODH IC50

Sure, the documented IC50 for CCCNC(=O)c1ccc(-n2cccn2)s1 is > 30 µM

Sure, the documented IC50 for CCCNC(=O)c1ccc(N2CCN(C)CC2)s1 is > 30 µM

Sure, the documented IC50 for CCCNC(=O)c1ccc(N2CCCCC2)s1 is > 30 µM
